- subject of test: human GLP-1 receptor (GLP1R) (human, UniProt P43220)
- assay: cell-based or functional assay
*1 amine or outer side, *2 acyl side, *3 side chain or, on linkers, in order; H or OH if unused. Bridges are numbered along the chain shown (N, C = ends). Where no end group is shown, it is not given here. Side-chain parts run from the residue outwards. [ ]: non-standard residue; d: D form. γGlu = O=C(O)[C@H](CCC(=O)[*:2])N[*:1]; Met(O2) = CS(=O)(=O)CC[C@H](N)C(=O)O; Nle = CCCC[C@H](N)C(=O)O; Ac4c = NC1(C(=O)O)CCC1; Aib = CC(C)(N)C(=O)O
GLP1R EC50 human (nM), cAMP activity assay reference
Kindly provide the numeric value in nM only, without the unit symbol.

{"binder": "H[Aib]QGTFTSDKSKYLD[Aib]RAAKDFVEWL[Nle]DT-NH2 (lactam 20-24; not fully specified (residue 10); printed as HUQGTFTSDK(γEγEC16)SKYLDURAAK*DFVE*WL-Nle-DT-NH2) [TP838]", "endpoint result": 0.259}
{"binder": "H[dS]QGTFTSEK([γGlu-γGlu-C16 fatty acid])SKKLD[Aib]RAAQDFVQWLLATK(γGlu)-NH2 (lactam 9-13) [TP115]", "endpoint result": 1.03}
{"binder": "H[Aib]QGTFTSDKSKYLD[Ac4c]KAAQEFVQWL[Met(O2)]DTK(γGlu)-NH2 (lactam 17-21; not fully specified (residue 10)) [TP857]", "endpoint result": 0.038}

Query string: Value lookup for GLP1R EC50 human (nM), cAMP activity assay; key = H[Aib]QGTFTSDKSKYLD[Aib]RAAQDFVKWL[Nle]ET-NH2 (lactam 24-28; not fully specified (residue 10); printed as HUQGTFTSDK(γEγEC16)SKYLDURAAQDFVK*WL-Nle-E*T-NH2) [TP842]
Result string: 0.237

Data provenance: patent US20230285514A1
